- EXPERIMENT DESCRIPTION: ATG_VDRE_CIS: Attagene CIS-FACTORIAL HepG2 Assay for human Vitamin D Receptor Element (VDRE) (AID 2282968)
- REPORTED CONDITIONS: HepG2 VDRE cis-reporter transcription, actives raise or lower the signal
Active and inactive are the calls of the source. Rule for the calls: active = hit-call score of the fitted dose curve at least 0.9, where 1 is the maximum; inactive = score below 0.9.
Outcome field: choose from active, inactive

Record excerpt, results attached:
[
  {
    "COMPOUND": "O=C1CN(N=Cc2ccc([N+](=O)[O-])o2)C(=O)N1",
    "LABEL VALUE": "inactive"
  },
  {
    "COMPOUND": "OCc1c[nH]c2ccccc12",
    "LABEL VALUE": "active"
  },
  {
    "COMPOUND": "COS(C)(=O)=O",
    "LABEL VALUE": "inactive"
  },
  {
    "COMPOUND": "FC(F)C(F)(F)COCC1CO1 (stereo not drawn)",
    "LABEL VALUE": "inactive"
  },
  {
    "COMPOUND": "OCC(CO)(CO)CO",
    "LABEL VALUE": "inactive"
  }
]

Lookup: Dear all, I need the recorded test outcome for CNC(C)=O , thank you.
Found: inactive

Lookup: And what about the compound O=S(=O)(O)c1ccc(N=Nc2c(O)ccc3cc(S(=O)(=O)O)ccc23)cc1 ?
Found: inactive
